Tested on: SW-620 colon
assay_text: NCI-60 one-dose screen, 48 h
cond: 10 µM unless noted
About 83,000 compounds went through this panel and 20% of them were active in at least one assay; those are over-represented in the sample as a whole. The source made the active and inactive calls. How the source made its calls: active means growth percent below 10; inactive means the rest.
Possible outcomes: active, inactive

• CCn1c(SCC(=O)Nc2cccc(C(=O)/C=C/c3cc(OC)c(OC)c(OC)c3)c2)nc2ccccc2c1=O = inactive
• O=S(=O)(Nc1cccc2ccccc12)c1ccc(-c2cnc(C3CC3)o2)cc1 = inactive
• COc1ccc([C@@H]2c3[nH]c4ccccc4c3C[C@H]3C(=O)N(C4CCN(CC5CCCCC5)CC4)CC(=O)N23)c(OC)c1 = inactive
• CCO/C=N/C1=C(C#N)C(c2ccc(Cl)cc2)c2sc3c(C)cccc3c2O1 (centres undefined) = inactive
• COc1ccc(/C=N/NC(=O)c2cn(C3CC3)c3c(OC)c(N4CC5CCCNC5C4)c(F)cc3c2=O)cc1 (centres undefined) = inactive
• NC(N)=Nc1ccc(Oc2cccc(Nc3ccc(Cl)cc3)c2)cn1 = active
• NS(=O)(=O)c1ccc(Nc2nc(N/N=C/c3ccccn3)nc(Nc3ccccc3)n2)cc1 = active
• c1ccc(C(c2nc3ncncc3[nH]2)N2CSc3nc4ccccc4n3C2)cc1 (centres undefined) = inactive
• Cc1cc(C)c2sc(=O)n(Cc3nnc(SCCC(=O)O)o3)c2n1 = inactive

###

Test system: SK-MEL-5 melanoma
assay_text: NCI-60 one-dose screen, 48 h (100 = growth as untreated, 0 = no growth, -100 = all killed)
cond: 10 µM unless noted
This is part of a sample that, as a whole, favours compounds with a hit. Of some 83,000 tested, about 20% had one in any assay. Activity calls are given as the source filed them. How the source made its calls: active means growth percent below 10; inactive means the rest.
test_readout: growth

• CCCCc1nc(/C=N/Nc2nc(Nc3ccccc3)nc(Nc3ccc(S(N)(=O)=O)cc3)n2)c(Cl)[nH]1 = 75.2% (inactive)
• COc1cc(OC)c(/C=C/S(=O)(=O)Cc2ccc(OC)c(NC(=O)CCC(=O)NO)c2)c(OC)c1 = -31.6% (active)
• CCOC(=O)C(=O)/C(=C\c1ccc(Cl)cc1)C(=O)N1C(=S)NC(=O)C1CC(C)C (stereo not given) = 92.8% (inactive)
• COc1cc(/C=C2\C(=O)Nc3ccccc32)ccc1OCc1ccc(F)cc1 = 102% (inactive)
• CCn1c(SCC(=O)Nc2cccc(C(=O)/C=C/c3ccccc3Cl)c2)nc2ccccc2c1=O = 93.5% (inactive)

###

System: ACHN renal
assay_text: NCI-60 one-dose screen, 48 h (100 = growth as untreated, 0 = no growth, -100 = all killed)
cond: 10 µM unless noted
Compounds without any hit were thinned out: in the full panel of roughly 83,000, 20% have a hit.
molecules and their reported growth
test_readout: growth (%)

• CCCn1cnc2c(c1=N)C(c1ccc(F)cc1)c1sc3c(C)cccc3c1O2 (stereo not drawn) = 35.5
• O=C(CCn1c[n+](CC(=O)c2ccc(-c3ccccc3)cc2)c2ccccc21)Nc1cccc2cccnc12 = 103
• NC(N)=Nc1ccc(Oc2cccc(NC(N)=Nc3ccc(I)cc3F)c2)cc1 = 101
• NC(N)=Nc1ccc(Oc2cccc(Nc3ccc(Br)c(C(F)(F)F)c3)c2)cc1 = 68.3
• N/C(=N\C(N)=N\c1nc2ccccc2s1)c1ccc2ccccc2c1 = 78.4
• CS(=O)(=O)Nc1cc(-c2ccc3ncc(C#N)c(Nc4cccc(Cl)c4F)c3c2)cnc1Cl = 12.7
• CC(=O)c1nnn(-c2c(C(=O)n3nc(C)cc3C)sc(=S)n2-c2ccccc2)c1C = 102
• COc1cc(-c2nn(C(C)(C)C)cc2-c2ccnc(NCCCNS(=O)(=O)c3ccc(F)cc3)n2)ccc1Cl = 83.6
• CCn1c(SCC(=O)Nc2cccc(C(=O)/C=C/c3ccc(Br)cc3)c2)nc2ccccc2c1=O = 102
• CS(=O)(=O)c1ncc(-c2ccccc2)cn1 = 97.3
• O=C(NNc1nc2cc(F)ccc2n2c(CN3CCC(O)C3)ccc12)c1cnccn1 (stereo not drawn) = 14.3
• C#CCOC(=O)[C@@H]1CCCN1CC#C = 85.7
• O=C1[C@H]2Cc3c([nH]c4ccccc34)[C@@H](c3ccc(Cl)cc3)N2C(=O)CN1C1CCN(Cc2ccccc2)CC1 = 40.6
• CCCCCCCn1cc2c(NCCc3ccccc3)ncnc2n1 = 95.1
• N#Cc1cccc(NC(=O)c2cc(-c3ccc(F)cc3F)ccc2O)c1 = 5.79
• O=C(Cn1c(-c2ccccc2)nc2cc(Cl)c(Cl)cc21)N=Nc1c(O)[nH]c2ccc(Cl)cc12 = 74.3
• Cc1c(Cl)cccc1S(=O)(=O)Nc1ccc2c(c1)C(=O)N(C1CCC(=O)NC1=O)C2=O (stereo not drawn) = 108
• CC(C)(O)c1cncc(-c2ccc3ncnc(NCc4ccccc4)c3c2)c1 = 66.4
• Clc1ccc(N/N=c2/oc3ccccc3cc2-c2cc3ccccc3[nH]2)cc1 = 49.7
• Nc1ncc(-c2ccc3ncnc(Nc4cccc(Cl)c4F)c3c2)cn1 = 25.3
• N#Cc1cccc(CN2CCC3=C(C2)C(=O)N(Cc2ccc(Cl)cc2)C2=NCCCN23)c1 = 38.4
• CC1=NC2=NC(=O)/C(=C3/N=C(C)C=C(c4ccccc4)N3N)NN2C(c2ccccc2)=C1 = 101
• O=C(CSc1nc2ccccc2c(=O)n1-c1ccccc1)Nc1cccc(C(=O)/C=C/c2ccccc2Cl)c1 = 103
• N=c1c2cc(-c3ccccc3)oc2ncn1/N=C/c1ccc(Br)cc1 = 19.3
• COc1c(N2CC3CCCNC3C2)c(F)cc2c(=O)c(C(=O)N/N=C/c3ccc(F)cc3)cn(C3CC3)c12 (stereo not drawn) = 104
• Cc1cc(-c2ccc(Cl)cc2)n(Cc2nnc(SCC(=O)Nc3ccc(S(N)(=O)=O)cc3)n2-c2ccc([N+](=O)[O-])cc2)n1 = 79.1
• CCOC(=O)c1c(Nc2ccccc2)nn2c(-c3ccc(Cl)cc3)ccnc12 = 47.2
• O=C(CSc1nc2ccccc2c(=O)n1-c1ccccc1)Nc1cccc(C(=O)/C=C/c2ccccc2)c1 = 102
• COc1cc2nc(Cl)nc(Nc3cccc(C4=Nc5c(N)nc(N)nc5NC(c5ccc(Cl)cc5)C4)c3)c2cc1OC (stereo not drawn) = 102
• CCOC(=O)C1=NNC(c2ccc(Cl)cc2)C1C(=O)N1C(=S)NC(=O)C1CC(C)C (stereo not drawn) = 93.3
• COc1ccc(-n2c(SCc3nnc(NC(=O)c4ccc(Br)cc4)s3)nc3cc(OC)c(OC)cc3c2=O)cc1 = 97.5
• COc1cc(/C=C2\C(=O)Nc3cc(Cl)ccc32)ccc1OCc1ccc(F)cc1 = 93.6
• O=C(CNc1nc(-c2cccc([N+](=O)[O-])c2)cs1)Nc1cccc(Cl)c1 = 101
• CC(=O)Nc1cccc(Nc2nc(N[C@H](C)c3ccccc3)c3ccccc3n2)c1 = 77.9
• CC1(C)[C@@H](O)CC[C@]2(C)[C@H]3CC[C@@H]4[C@H]5[C@H](C(=O)/C=C\c6ccncc6)CC[C@]5(O)CC[C@@]4(C)[C@]3(C)CC[C@@H]12 = 52.5
• C[C@H]1c2[nH]c3ccccc3c2C[C@H]2C(=O)N(CCCCCCC(=O)NO)CC(=O)N21 = 90.1
• Cc1ccc2c(c1)Oc1nc(N)c(C#N)c(N)c1C2Sc1ccc(F)cc1 (stereo not drawn) = -100
• COc1cc(/C=N/NC(=O)c2cn(C3CC3)c3c(OC)c(N4CC5CCCNC5C4)c(F)cc3c2=O)ccc1O (stereo not drawn) = 35.3

###

Tested on: SN12C renal
assay_text: NCI-60 one-dose screen, 48 h (100 = growth as untreated, 0 = no growth, -100 = all killed)
cond: 10 µM unless noted
About 83,000 compounds went through this panel and 20% of them were active in at least one assay; those are over-represented in the sample as a whole.
test_readout: growth (%)

* C#CCNC1CCC(c2csc(C#C)n2)=C1C (stereo not given) | 65.4
* CNC(=O)c1cc(N2CCc3cc(NC(=O)Nc4ccc(Cl)c(C(F)(F)F)c4)ccc32)ccn1 | 65.2
* Cc1cc2ncc(-c3cc4ccccc4c(N4CCN(C)CC4)n3)nc2cc1C | 31.5
* O=C(NNc1nc2cc(F)c(F)cc2n2c(CN3CC4CNCC4C3)ccc12)c1ncccn1 (stereo not given) | 25.8
* Cc1ccc(NC(=S)NNC(=S)Nc2ccc(C)cc2)cc1 | 98.1
* NC(N)=Nc1ccc(Oc2cccc(Nc3ccc(Br)c(C(F)(F)F)c3)c2)cn1 | -87.7
* CC(C)(C)c1ccc(C(=O)Nc2nc3ccc(O)cc3s2)cc1 | 53.5
* N=c1c2cc(-c3ccccc3)oc2ncn1/N=C/c1ccc(Br)cc1 | 60
* COc1cc(OC)c(/C=C/S(=O)(=O)Cc2ccc(OC)c(NCC(=O)NO)c2)c(OC)c1 | 19.2
* C=C(C=O)[C@@H]1CC[C@]2(CO)CC[C@]3(C)[C@H](CC[C@@H]4[C@@]5(C)CCCNC(C)(C)[C@@H]5CC[C@]43C)[C@@H]12 | 54.6
* COc1ccc2[nH]cc(-c3csc4nc(-c5ccccc5)cn34)c2c1 | 40.2
* Cc1ccc(-c2cc3nc(C(Cl)Cl)nc(-c4cccs4)n3n2)cc1 | 85.9
* CCO/C=N/C1=C(C#N)C(c2ccc(OC)cc2)c2sc3c(CC)cccc3c2O1 (stereo not given) | 43.6
* CCCCCCCn1cc2c(N[C@H](C)c3ccccc3)ncnc2n1 | 99.2
* COc1ccc(NCc2cn(-c3ccc(C(=O)O)cc3)nc2-c2cc(C(F)(F)F)cc(C(F)(F)F)c2)cc1 | 95.4
* O=C(Cn1cc[n+](CC(=O)c2ccc(-c3ccccc3)cc2)c1)Nc1cccc2cccnc12 | 75.9
* CC1=CC(=O)C2=C(C)CC(OC(=O)CCc3ccccc3)[C@@H]3[C@H](OC(=O)[C@@H]3C)[C@@H]12 (stereo not given in full) | 95.3
* Oc1cccc2ccc(-c3nnc(SCc4ccc(O)c5ncccc45)n3-c3ccccc3)nc12 | 20
* NS(=O)(=O)c1ccc(Nc2nc(N/N=C/c3c[nH]c4ccccc34)nc(Nc3ccccc3)n2)cc1 | 40.2
* CN(C)CCNC(=O)c1ccc(-c2nc3ccc4[nH]ncc4c3c3c2CCC3)cc1 | 7.23
